Biological target: Recombinant human Farnesyl Pyrophosphate synthase (FPPS) (Homo sapiens, UniProt P14324)
Construct: made in house
Experiment: FPPS SPA (scintillation proximity FlashPlate assay of FPPS inhibition)
Type: biochemical
Details: Example 15 table; FPPS SPA; read-out: IC50
parameter: pIC50
To interpret pIC50, take it as minus log10 of a concentration measured in moles per litre.

A selection of reference data follows.
O=C(O)c1ccc(N2CCOCC2)cc1OCc1cccc2ccccc12: 5.50
CN1CCCC1CCNc1ccc(C(=O)O)c(OCc2cccc3ccccc23)c1 (centres unmarked): 4.76
CN(CCO)c1ccc(C(=O)O)c(OCc2cccc3ccccc23)c1: 6.14

stdin: Return reported pIC50; argument: `CC(C)(C)CNc1ccc(C(=O)O)c(OCc2cccc3ccccc23)c1`
stdout: 6.33

stdin: Return reported pIC50; argument: `O=C(O)c1ccc(N2CCCCCC2)cc1OCc1cccc2ccccc12`
stdout: 6.28

stdin: Return reported pIC50; argument: `COCCN(C)c1ccc(C(=O)O)c(OCc2cccc3ccccc23)c1`
stdout: 5.86

###

Target: Recombinant human Farnesyl Pyrophosphate synthase (FPPS) (Homo sapiens)
Construct: made in house
Assay: FPPS SPA (scintillation proximity FlashPlate assay of FPPS inhibition)
Type: biochemical
Details: Example 15 table; FPPS SPA; read-out: IC50
Parameter IC50: see the listing below.
The answer is to be given in nM; state only the numeric part.

A selection of reference data follows.
O=C(O)c1ccc(NCCCO)cc1OCc1cccc2ccccc12: 2310
CCCN(CC1CC1)c1ccc(C(=O)O)c(OCc2cccc3ccccc23)c1: 1310

stdin: Notebook: pull reported IC50 for Recombinant human Farnesyl Pyrophosphate synthase (FPPS) (Homo sapiens), entry `O=C(O)c1ccc(NCC2CCCCC2)cc1OCc1cccc2ccccc12`
stdout: 2430

###

Biological target: Recombinant human Farnesyl Pyrophosphate synthase (FPPS) (Homo sapiens)
Construct: made in house
Assay: FPPS SPA (scintillation proximity FlashPlate assay of FPPS inhibition)
Format: biochemical
Conditions: Inhibition according to the FPPS SPA (Example 21); read-out: IC50
pIC50: −log10 of the molar value.
Decision: pIC50 >= 6 yields yes, all other cases yield no.

Cc1ccc2ccccc2c1COc1ccccc1C(=O)O [17 b)]: yes
O=C(O)c1ccccc1OCc1cccc2ccccc12 [17 r)]: no

# ---- query compound ----
stdin: Is the recorded value of pIC50 equal to or greater than 6 for this compound? Cc1ccc(C)n1-c1ccc(C(=O)O)c(OCc2cccc3ccccc23)c1 [17 g)]
stdout: yes

###

Target: Recombinant human Farnesyl Pyrophosphate synthase (FPPS) (Homo sapiens)
Construct: made in house
Assay: FPPS SPA (scintillation proximity FlashPlate assay of FPPS inhibition)
Assay type: biochemical
Conditions: Example 16 table; FPPS SPA; read-out: IC50
Parameter IC50: see the listing below.
The answer is to be given in µM; state only the numeric part.

O=C(O)c1ccc(NCC2CC2)cc1OCc1cccc2ccccc12: 1.2

Proceeding to the next compound to report its IC50.
stdin: Return reported IC50; argument: `O=C(O)c1ccc(NCc2ccccc2)cc1OCc1cccc2ccccc12`
stdout: 0.21

###

Biological target: Recombinant human Farnesyl Pyrophosphate synthase (FPPS) (Homo sapiens)
Construct: made in house
Sequence (P14324 72-419 limits assumed): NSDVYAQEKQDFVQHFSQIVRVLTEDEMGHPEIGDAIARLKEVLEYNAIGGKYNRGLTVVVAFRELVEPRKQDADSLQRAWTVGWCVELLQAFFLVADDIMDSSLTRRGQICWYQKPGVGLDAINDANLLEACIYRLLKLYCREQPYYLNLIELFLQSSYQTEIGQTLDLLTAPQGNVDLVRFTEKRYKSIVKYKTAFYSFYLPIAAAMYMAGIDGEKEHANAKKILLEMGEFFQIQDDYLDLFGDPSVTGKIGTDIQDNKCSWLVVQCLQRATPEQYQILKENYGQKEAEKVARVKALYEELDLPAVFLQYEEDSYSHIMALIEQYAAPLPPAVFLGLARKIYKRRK
Experiment: FPPS SPA (scintillation proximity FlashPlate assay of FPPS inhibition)
Assay type: biochemical
Details: IC50, Example 13 table; FPPS SPA
parameter: IC50 (µM)
The answer is to be given in µM; state only the numeric part.

O=C(O)c1ccc(-c2ccc(Cl)cc2)cc1OCc1cccc2ccccc12: 0.69

stdin: Return reported IC50; argument: `O=C(O)c1ccc(-c2ccc(F)cc2)cc1OCc1cccc2ccccc12`
stdout: 0.3

stdin: Return reported IC50; argument: `O=C(O)c1ccc(-c2ccc(O)cc2)cc1OCc1cccc2ccccc12`
stdout: 0.38

The origin of these recorded values is patent US20110288057A1.
